run-description: Drug concentration in total skeletal muscle in Wistar Han rat at 1 to 2 mg/kg, iv infused for 10 to 20 hrs by LC-MS/MS analysis
measurement-context: in vivo
readout: Ct (ng/mL)
Your answer is read as ng/mL, so omit the unit and give the number.

(Q) # get_value(readout='Ct', item= `CC1(OC(=O)N2CCC(n3ncc(COc4ccc(C(N)=O)cc4F)c3C#N)CC2)CC1` )
(A) 100

(Q) `C[C@H]1COCCN1c1nc(-c2cnc(N)nc2)c2c(n1)N([C@@]1(C)CCN(C(=O)C(C)(C)N)C1)CC2` ?
(A) 38

(Q) `N#Cc1ccc(N2N=C(N3CCC(C(=O)N4CCC(O)CC4)CC3)C[C@H]2C2CCCC2)cc1Cl` ?
(A) 150

(Q) `C[C@H](CN1CCOCC1)n1/c(=N\C(N)=O)[nH]c2cc(/C=C3\c4ccccc4COc4cc(F)ccc43)ccc21` ?
(A) 240

(Q) `COc1ccc(-c2cc3c(C(=O)O)n[nH]c3cc2Cl)cc1` ?
(A) 1.9
